assay: Assessment of solubility: HT solubility in pION buffer, UV spectrophotometry; conditions: pION system solution buffer, pH 7.4, pH 7.4, aqueous buffer, kinetic from dmso stock, Solubility (pH 7.4), pH 7.4 buffer, 16-19 h incubation, 1.0% DMSO
observation.type: solubility

### Prompt I would be grateful if you could share the reported solubility for Cc1cc(CN2CCOCC2)ccc1COc1ccc(F)cc1-c1csc(N2CC3CCC(C2)C3C(=O)O)n1 (stereo not shown) [Compound 77] .
### Response 16 µg/mL

### Prompt Endpoint output: solubility of CNC(=O)CN(C)C(=O)c1ccc(COc2ccc(C)cc2-c2csc(N3C[C@H]4CC[C@@H](C3)[C@H]4C(=O)O)n2)c(C)c1 [Compound 347] . Value?
### Response > 53 µg/mL

### Prompt Requested field: solubility. Item: Cc1cc(C(=O)N2CCCCC2)ccc1COc1ccccc1-c1csc([C@H]2CC[C@H](C(=O)O)CC2)n1 [Compound 12]
### Response > 51 µg/mL

--- query ---
### Prompt Find the recorded solubility belonging to Cc1cc(C(=O)N2CCCCC2)ccc1COc1ccc(F)cc1-c1csc(N2CCC(C(=O)O)CC2)n1 [Compound 59] and report it.
### Response > 53 µg/mL

Reference source for all entries: patent US8815857B2
